# tested.target: UniProtKB Q9P1W9
# Sequence (Q9P1W9 whole entry): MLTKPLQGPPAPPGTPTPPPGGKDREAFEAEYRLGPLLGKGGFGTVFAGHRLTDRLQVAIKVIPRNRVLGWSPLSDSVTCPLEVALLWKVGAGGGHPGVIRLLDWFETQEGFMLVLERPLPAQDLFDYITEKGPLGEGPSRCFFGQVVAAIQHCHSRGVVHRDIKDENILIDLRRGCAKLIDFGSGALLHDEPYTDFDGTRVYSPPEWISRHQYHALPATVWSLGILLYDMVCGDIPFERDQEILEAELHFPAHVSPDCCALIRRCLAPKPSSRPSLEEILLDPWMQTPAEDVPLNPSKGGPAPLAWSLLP
# protocol.description: Pim2 ATP depletion assay;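 further: Luciferase-based luminescent readout of ATP remaining after PIM2 phosphorylates a BAD peptide, final 5 nM enzyme, 4 µM ATP, 10 µM peptide, 2.5% DMSO, run to roughly half ATP consumption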
# Type: biochemical
# experimental.parameters: read-out: IC50 (μM) PIM2
endpoint.name: IC50

Known IC50 results, listed for orientation:
- molecule: "CC(C)NC(=O)c1ccc(F)c(-c2ccc(N)c(C(=O)Nc3cnccc3N3CCC[C@H](N)C3)n2)c1F"
  reading: "< 1 µM"
- molecule: "COc1ccc(N2CCCC(N)C2)c(NC(=O)c2nccnc2N)c1 (stereo not shown)"
  reading: "1 to 10 µM"
- molecule: "Nc1cnc(C(=O)Nc2cnccc2N2CCCCC2)c(N)n1"
  reading: "1 to 10 µM"

IC50 lookup needed for `Nc1cc(-c2ccc(N)c(C(=O)Nc3cnccc3N3CCC[C@H](N)C3)n2)ccn1` , thanks. < 1 µM
